# Condition parameters: in water, 288.15 K
Property: solubility (mole fraction)

Compound structure string: Nc1ccc(S(=O)(=O)Nc2ncccn2)cc1
Property: solubility (mole fraction)
Test value: 3.18e-06

----------
# Condition parameters: in NMP, 293.15 K

Compound structure string: Nc1ccc(S(=O)(=O)Nc2ncccn2)cc1
solubility (mole fraction): 0.018

----------
# Condition parameters: in NMP, 283.15 K

Compound structure string: Nc1ccc(S(=O)(=O)Nc2ncccn2)cc1
solubility (mole fraction): 0.0137

----------
# Condition parameters: in water, 278.15 K

Compound structure string: Nc1ccc(S(=O)(=O)Nc2ncccn2)cc1
solubility (mole fraction): 1.89e-06
